The values you see were collected from patent US20050107616A1.

Target: UniProt:O60911
Sequence (O60911 114-334): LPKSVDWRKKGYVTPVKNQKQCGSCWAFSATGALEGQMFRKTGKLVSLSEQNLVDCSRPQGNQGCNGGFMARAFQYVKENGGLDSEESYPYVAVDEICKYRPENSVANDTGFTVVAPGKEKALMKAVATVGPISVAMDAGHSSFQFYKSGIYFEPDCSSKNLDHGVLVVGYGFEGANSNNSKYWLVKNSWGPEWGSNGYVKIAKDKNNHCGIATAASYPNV
Assay: Cathepsin V inhibition assay, fluorogenic substrate Cbz-Phe-Arg-AMC
Conditions: Table 2; human recombinant enzyme, pH 5.5, 30° C., 2 μM substrate; read-out: hCat V Ki
pKi: −log10 of the molar value.
Provide the reported pKi of each item.

Worked cases, pKi given:
STRUCTURE_STRING | pKi
CCCC[C@H](NC(=O)O[C@H](Cn1cnc(-c2ccc(C(F)(F)F)cc2)c1)C(C)(C)C)C(=O)C(=O)Nc1ccnn1C1CCC1 | 7.00 to 9.00
CCCC[C@H](NC(=O)O[C@H](Cn1cnc(-c2ccc(C(F)(F)F)cc2)c1)C(C)(C)C)C(=O)C(=O)Nc1ccn[nH]1 | 9.00 to 11.00

Recorded pKi for CCCC[C@H](NC(=O)O[C@H](c1nnc(-c2ccc(C(F)(F)F)cc2)o1)C(C)(C)C)C(=O)C(=O)Nc1ccn[nH]1 , please? 7.00 to 9.00
